Molecular target: human Cx26 HCs (Homo sapiens, UniProt P29033)
Construct: expressed in transfected cells; host or cells: E. coli LB2003 (carrying pREP4), transformed with pQE-Cx26, IPTG-induced
Assay: Cx26-dependent growth complementation assay in E. coli LB2003
Type: cell-based
Details: Table 7; read-out: Cx26 IC50
Parameter: pIC50
# pIC50: negative log10 of molar concentration; output just the value

[Q] # pIC50 lookup, item NC1CC(N)C(O[C@H]2OC(CNC(=O)c3ccccc3-c3c4ccc(=O)cc-4oc4ccc(O)cc34)[C@@H](O)C(O)C2O)[C@H](O)C1OC1O[C@H](CO)C(O)C(N)[C@H]1O (some centres unmarked)
[A] 4.90

[Q] I'd like to know its pIC50. The compound in question is Cc1ccc(OC[C@H]2OC(OC3C(N)CC(N)C(O[C@H]4OC(CN)[C@@H](O)C(O)C4O)[C@@H]3O)[C@H](O)C(N)C2O)cc1 (some centres unmarked)
[A] 4.31

* * *

Biological target: human Cx26 HCs (Homo sapiens, UniProt P29033)
Construct: expressed in transfected cells; host or cells: E. coli LB2003 (carrying pREP4), transformed with pQE-Cx26, IPTG-induced
Assay: Cx26-dependent growth complementation assay in E. coli LB2003
Type: cell-based
Details: 50 μM; Table 6
Please use the following inhibition at 50 µM ranges when assigning a class: LOW (below 30%), MID (30% to below 70%), HIGH (70% or more)

[Q] Consider COc1ccc(OC[C@H]2OC(OC3C(N)CC(N)C(O[C@H]4OC(CN)[C@@H](O)C(O)C4O)[C@@H]3O)[C@H](O)C(N)C2O)cc1 (some centres unmarked) [Compound K81] . To which inhibition at 50 µM class does it belong?
[A] MID

[Q] Which category fits this record: NC1CC(N)C(O[C@H]2OC(CNC(=O)CCCc3ccc4ccc5cccc6ccc3c4c56)[C@@H](O)C(O)C2O)[C@H](O)C1OC1O[C@H](CO)C(O)C(N)[C@H]1O (some centres unmarked) [KI09]
[A] HIGH

[Q] Please let me know in which category the item NC1CC(N)C(O[C@H]2OC(CNC(=O)c3cc(-c4ccccc4)nc4ccccc34)[C@@H](O)C(O)C2O)[C@H](O)C1OC1O[C@H](CO)C(O)C(N)[C@H]1O (some centres unmarked) [KI08] belongs.
[A] LOW

[Q] Could you place NCC1O[C@H](OC2C(N)CC(N)C(OC3O[C@H](COc4ccc([N+](=O)[O-])cc4)C(O)C(N)[C@H]3O)[C@H]2O)C(O)C(O)[C@@H]1O (some centres unmarked) [Compound K36] in its proper category? Many thanks.
[A] MID

[Q] Place this compound in its band: CCCCCCCCCCCC(=O)NCC1O[C@H](OC2C(N)CC(N)C(OC3O[C@H](CO)C(O)C(N)[C@H]3O)[C@H]2O)C(O)C(O)[C@@H]1O (some centres unmarked) [KI04]
[A] MID

[Q] Into which bin does this compound go? CCCCCCCCCC(=O)NCC1O[C@H](OC2C(N)CC(N)C(OC3O[C@H](CO)C(O)C(N)[C@H]3O)[C@H]2O)C(O)C(O)[C@@H]1O (some centres unmarked) [KI03]
[A] MID

[Q] Hey, which category is Cc1ccc(OC[C@H]2OC(OC3C(N)CC(N)C(O[C@H]4OC(CN)[C@@H](O)C(O)C4O)[C@@H]3O)[C@H](O)C(N)C2O)cc1 (some centres unmarked) [Compound K82] in, do you know?
[A] LOW

[Q] Could you place CCCCCCCC(=O)NCC1O[C@H](OC2C(N)CC(N)C(OC3O[C@H](CO)C(O)C(N)[C@H]3O)[C@H]2O)C(O)C(O)[C@@H]1O (some centres unmarked) [KI02] in its proper category? Many thanks.
[A] LOW

[Q] Dear colleague, I would appreciate it if you could identify the bin for NC1CC(N)C(O[C@H]2OC(CNC(=O)c3ccccc3-c3c4ccc(=O)cc-4oc4ccc(O)cc34)[C@@H](O)C(O)C2O)[C@H](O)C1OC1O[C@H](CO)C(O)C(N)[C@H]1O (some centres unmarked) [KI10] and reply at your convenience.
[A] HIGH

* * *

Biological target: human Cx26 HCs (Homo sapiens)
Construct: expressed in transfected cells; host or cells: E. coli LB2003 (carrying pREP4), transformed with pQE-Cx26, IPTG-induced
Assay: Cx26-dependent growth complementation assay in E. coli LB2003
Assay type: cell-based
Conditions: the 13th table; read-out: Cx26 IC50
Parameter: pIC50
Reminder that pIC50 is minus the log10 of a molar concentration.

[Q] Find the recorded pIC50 belonging to CCCCCCCCOC[C@H]1OC(O[C@@H]2C(N)CC(N)C(O[C@H]3OC(CN)[C@@H](O)[C@H](O)C3O)[C@@H]2O)[C@H](O)[C@H](N)C1OCCCCCCCC (stereo partly shown) [Compound 5] and report it.
[A] 4.87

* * *

Molecular target: human Cx26 HCs (Homo sapiens, UniProt P29033)
Construct: expressed in transfected cells; host or cells: E. coli LB2003 (carrying pREP4), transformed with pQE-Cx26, IPTG-induced
Assay: Cx26-dependent growth complementation assay in E. coli LB2003
Format: cell-based
Conditions: 15 μM; Table 3
Parameter: inhibition at 15 µM (%)
Give just the numeric value; % need not be written.

[Q] I'd like to know its inhibition at 15 µM. The compound in question is NCC1O[C@H](OC2C(N)CC(N)C(OC3O[C@H](COc4ccc([N+](=O)[O-])cc4)C(O)C(N)[C@H]3O)[C@H]2O)C(O)C(O)[C@@H]1O (stereo partly drawn)
[A] 35.9

[Q] Given the entry NC1CC(N)C(O[C@H]2OC(CNC(=O)CCCc3ccc4ccc5cccc6ccc3c4c56)[C@@H](O)C(O)C2O)[C@H](O)C1OC1O[C@H](CO)C(O)C(N)[C@H]1O (stereo partly drawn) , report its measured inhibition at 15 µM.
[A] 36.9

[Q] Param item = COc1ccc(OC[C@H]2OC(OC3C(N)CC(N)C(O[C@H]4OC(CN)[C@@H](O)C(O)C4O)[C@@H]3O)[C@H](O)C(N)C2O)cc1 (stereo partly drawn) ; retrieve measured inhibition at 15 µM.
[A] 15.9

* * *

Would you mind telling me the reported inhibition at 15 µM of each entry?
Target: Cx43 HCs (Homo sapiens)
Construct: expressed in transfected cells
Sequence (P17302 whole entry): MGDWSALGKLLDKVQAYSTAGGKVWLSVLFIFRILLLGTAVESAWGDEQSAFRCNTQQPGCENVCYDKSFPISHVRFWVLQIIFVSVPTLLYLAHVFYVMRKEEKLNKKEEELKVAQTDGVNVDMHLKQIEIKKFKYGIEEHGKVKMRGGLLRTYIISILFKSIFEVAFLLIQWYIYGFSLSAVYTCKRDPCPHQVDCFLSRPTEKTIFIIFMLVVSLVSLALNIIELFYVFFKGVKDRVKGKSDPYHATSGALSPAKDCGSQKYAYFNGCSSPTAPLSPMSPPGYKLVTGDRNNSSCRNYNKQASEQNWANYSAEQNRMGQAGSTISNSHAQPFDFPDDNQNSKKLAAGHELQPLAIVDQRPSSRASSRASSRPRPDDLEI
Test: Cx43-dependent growth complementation assay in E. coli LB2003
Type: cell-based
Conditions: 15 μM; KI members, the 23rd table; read-out: Cx43 % inhibition
# unit: % | format: bare number

[Q] Reported inhibition at 15 µM, compound NC1CC(N)C(O[C@H]2OC(CNC(=O)c3ccccc3-c3c4ccc(=O)cc-4oc4ccc(O)cc34)[C@@H](O)C(O)C2O)[C@H](O)C1OC1O[C@H](CO)C(O)C(N)[C@H]1O (stereo partly drawn) : ____
[A] 56.8

[Q] Consider the compound shown here: NC1CC(N)C(O[C@H]2OC(CNC(=O)CCCc3ccc4ccc5cccc6ccc3c4c56)[C@@H](O)C(O)C2O)[C@H](O)C1OC1O[C@H](CO)C(O)C(N)[C@H]1O (stereo partly drawn) What is its recorded inhibition at 15 µM?
[A] 43

[Q] # get_value(readout='inhibition at 15 µM', item= CCCCCCCC(=O)NCC1O[C@H](OC2C(N)CC(N)C(OC3O[C@H](CO)C(O)C(N)[C@H]3O)[C@H]2O)C(O)C(O)[C@@H]1O (stereo partly drawn) )
[A] 17

[Q] Please give the measured inhibition at 15 µM for this compound: NC1CC(N)C(O[C@H]2OC(CNC(=O)c3cc(-c4ccccc4)nc4ccccc34)[C@@H](O)C(O)C2O)[C@H](O)C1OC1O[C@H](CO)C(O)C(N)[C@H]1O (stereo partly drawn)
[A] 25.5

[Q] Given the entry CCCCCCCCCC(=O)NCC1O[C@H](OC2C(N)CC(N)C(OC3O[C@H](CO)C(O)C(N)[C@H]3O)[C@H]2O)C(O)C(O)[C@@H]1O (stereo partly drawn) , report its measured inhibition at 15 µM.
[A] 44.4

[Q] Return reported inhibition at 15 µM; argument: CCCCCCCCCCCC(=O)NCC1O[C@H](OC2C(N)CC(N)C(OC3O[C@H](CO)C(O)C(N)[C@H]3O)[C@H]2O)C(O)C(O)[C@@H]1O (stereo partly drawn)
[A] 43.9

* * *

Exercise: for every item that follows, state its recorded IC50.
Molecular target: human Cx26 HCs (Homo sapiens, UniProt P29033)
Construct: expressed in transfected cells; host or cells: E. coli LB2003 (carrying pREP4), transformed with pQE-Cx26, IPTG-induced
Assay: Cx26-dependent growth complementation assay in E. coli LB2003
Type: cell-based
Settings: K46 members, the 20th table; read-out: IC50 (μM) against Cx26
Value expressed in µM; do not type the unit.

[Q] // IC50 lookup, key: `NC[C@H]1O[C@H](O[C@H]2[C@H](O)[C@@H](O[C@@H]3O[C@H](COCc4ccc(F)cc4)[C@@H](OCc4ccc(F)cc4)[C@H](N)[C@H]3O)[C@H](N)C[C@@H]2N)[C@H](O)[C@@H](O)[C@@H]1O`
[A] 8.1

[Q] Dear colleague, I am looking for the recorded IC50 of the following molecule: CCCCCCCCOC[C@H]1OC(O[C@@H]2C(N)CC(N)C(O[C@H]3OC(CN)[C@@H](O)[C@H](O)C3O)[C@@H]2O)[C@H](O)[C@H](N)C1OCCCCCCCC (stereo partly shown)
[A] 13.6

[Q] Requested field: IC50. Item: COC1C(OC2C(N)CC(N)C(OC3OC(CN)C(OC)C(OC)C3OC)C2OC)OC(COCc2ccccc2)C(OCc2ccccc2)C1N (stereo not shown)
[A] 8.4

[Q] Which IC50 value is on record for CCCCOCC1OC(OC2C(N)CC(N)C(OC3OC(CN)C(O)C(O)C3O)C2O)C(O)C(N)C1OCCCC (stereo not shown) ?
[A] 19

[Q] Look up IC50: NCC1OC(OC2C(N)CC(N)C(OC3OC(COCc4ccc(Cl)cc4)C(OCc4ccc(Cl)cc4)C(N)C3O)C2O)C(O)C(O)C1O (stereo not shown)
[A] 2.5

[Q] Tell me the measured IC50 of `CCCCCCCCCOC[C@H]1O[C@H](O[C@H]2[C@H](O)[C@@H](O[C@H]3O[C@H](CN)[C@@H](O)[C@H](O)[C@H]3O)[C@H](N)C[C@@H]2N)[C@H](O)[C@@H](N)[C@@H]1OCCCCCCCCC` , please.
[A] 18.8

[Q] Bench note: what IC50 did `CCCCCCOC[C@H]1O[C@H](O[C@@H]2[C@@H](O)[C@H](O[C@H]3O[C@H](CN)[C@@H](O)[C@H](O)[C@H]3O)[C@@H](N)C[C@H]2N)[C@H](O)[C@@H](N)[C@@H]1OCCCCCC` show?
[A] 6.2
